Data credit: patent US11401243B2

measurementTarget: recombinant human PRMT3 enzyme (Homo sapiens, UniProt O60678)
Sequence (O60678 whole entry): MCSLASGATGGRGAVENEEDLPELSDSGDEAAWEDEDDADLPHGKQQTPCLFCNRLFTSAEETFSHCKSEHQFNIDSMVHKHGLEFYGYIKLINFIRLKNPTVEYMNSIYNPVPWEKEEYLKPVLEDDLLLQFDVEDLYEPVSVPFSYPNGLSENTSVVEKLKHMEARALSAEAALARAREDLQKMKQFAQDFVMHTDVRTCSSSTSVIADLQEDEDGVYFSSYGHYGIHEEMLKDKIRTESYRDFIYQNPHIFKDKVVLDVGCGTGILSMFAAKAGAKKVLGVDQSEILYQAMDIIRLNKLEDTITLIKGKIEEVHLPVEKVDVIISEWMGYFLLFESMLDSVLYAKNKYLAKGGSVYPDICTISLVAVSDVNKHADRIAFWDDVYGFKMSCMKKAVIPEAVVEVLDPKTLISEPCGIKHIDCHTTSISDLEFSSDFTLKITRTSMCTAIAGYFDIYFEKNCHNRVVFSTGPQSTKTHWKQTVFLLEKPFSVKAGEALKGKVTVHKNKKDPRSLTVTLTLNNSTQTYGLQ
assayText: PRMT3 activity assay (radiometric)
studyConditions: NC: not calculable (no significant inhibition); read-out: IC50, Protein arginine methyltransferase 3
pIC50: −log10 of the molar value.

[
  {
    "compound": "Nc1ncnc2c1ncn2[C@@H]1O[C@H](CSCC[C@H](N)C(=O)O)[C@@H](O)[C@H]1O [SAH, S-adenosylhomocysteine, reference compound]",
    "measurementTarget": "recombinant human PRMT3 enzyme (Homo sapiens, UniProt O60678)",
    "pIC50": 5.18
  }
]

====

measurementTarget: human NNMT (mt-hNNMT) (Homo sapiens, UniProt P40261, E101A/E103A/K100A)
Sequence (P40261 1-261 K100A/E101A/E103A limits assumed): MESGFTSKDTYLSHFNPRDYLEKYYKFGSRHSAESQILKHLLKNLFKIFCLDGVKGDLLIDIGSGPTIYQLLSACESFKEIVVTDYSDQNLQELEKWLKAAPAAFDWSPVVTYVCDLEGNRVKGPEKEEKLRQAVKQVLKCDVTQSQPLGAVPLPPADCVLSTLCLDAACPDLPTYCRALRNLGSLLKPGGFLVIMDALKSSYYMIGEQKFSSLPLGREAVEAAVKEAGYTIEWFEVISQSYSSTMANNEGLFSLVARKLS
assayText: NNMT activity assay (HPLC-UV detection of MNA), NNMT IC50 curves
studyConditions: NNMT Inhibition IC50, mean ± SD of duplicate or triplicate measurements; NI = no observable inhibition
measuredProperty: IC50 (µM)

[
  {
    "structureSmiles": "O=C(C[n+]1cccc2ccccc21)c1ccccc1",
    "measuredProperty": "IC50",
    "cmp": ">",
    "val": 1000
  },
  {
    "structureSmiles": "CC(=O)C[n+]1cccc2cc(Cl)ccc21",
    "measuredProperty": "IC50",
    "cmp": ">",
    "val": 1000
  },
  {
    "structureSmiles": "C[n+]1cc(N)cc2cc(F)ccc21",
    "measuredProperty": "IC50",
    "cmp": "=",
    "val": 1.2
  },
  {
    "structureSmiles": "CC[n+]1cccc2ccccc21",
    "measuredProperty": "IC50",
    "cmp": "=",
    "val": 27.1
  },
  {
    "structureSmiles": "C[n+]1ccc(Cl)c2cccc(C(F)(F)F)c21.O=S(=O)([O-])C(F)(F)F",
    "measuredProperty": "IC50",
    "cmp": ">",
    "val": 1000
  },
  {
    "structureSmiles": "Cc1ccc2c(ccc(C)[n+]2C)c1",
    "measuredProperty": "IC50",
    "cmp": ">",
    "val": 1000
  },
  {
    "structureSmiles": "Cc1ccc(C(F)(F)F)c2ccc[n+](C)c12",
    "measuredProperty": "IC50",
    "cmp": "=",
    "val": 87
  }
]

====

measurementTarget: human NNMT (mt-hNNMT) (Homo sapiens, UniProt P40261, E101A/E103A/K100A)
assayText: NNMT activity assay (HPLC-UV detection of MNA), NNMT IC50 curves
studyConditions: read-out: NNMT Inhibition IC50; mean ± SD of duplicate or triplicate measurements; NI = no observable inhibition
measuredProperty: IC50

[
  {
    "structureSmiles": "Cc1ccc2c(ccc[n+]2CC(=O)c2ccccc2)c1",
    "measurementTarget": "human NNMT (mt-hNNMT) (Homo sapiens, UniProt P40261, E101A/E103A/K100A)",
    "val": "> 1000 µM"
  }
]

====

measurementTarget: recombinant human NAMPT enzyme (Homo sapiens, UniProt P43490)
Sequence (P43490 whole entry): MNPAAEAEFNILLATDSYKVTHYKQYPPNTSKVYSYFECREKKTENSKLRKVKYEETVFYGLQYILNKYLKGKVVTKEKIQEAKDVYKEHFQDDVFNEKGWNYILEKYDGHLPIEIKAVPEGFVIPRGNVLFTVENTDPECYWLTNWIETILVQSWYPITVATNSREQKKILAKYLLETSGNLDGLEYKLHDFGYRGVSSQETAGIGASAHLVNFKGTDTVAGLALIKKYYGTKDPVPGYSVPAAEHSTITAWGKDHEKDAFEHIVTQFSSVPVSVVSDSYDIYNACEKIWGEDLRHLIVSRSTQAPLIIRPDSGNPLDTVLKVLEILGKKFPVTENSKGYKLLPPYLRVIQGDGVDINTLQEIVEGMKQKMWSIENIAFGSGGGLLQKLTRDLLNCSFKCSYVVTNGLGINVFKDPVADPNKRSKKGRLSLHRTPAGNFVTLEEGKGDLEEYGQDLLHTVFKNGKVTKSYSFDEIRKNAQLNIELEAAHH
assayText: NAMPT activity assay (fluorometric)
studyConditions: concentrations above 100 μM could not be tested (assay interference); read-out: IC50, Nicotinamide phosphoribosyl transferase
pIC50: −log10 of the molar value.

[
  {
    "compound": "C[n+]1cccc2c(N)cccc21 [1j, 5-amino-1-methylquinolin-1-ium iodide]",
    "measurementTarget": "recombinant human NAMPT enzyme (Homo sapiens, UniProt P43490)",
    "pIC50": "< 4.00"
  }
]

====

assayText: Bi-directional permeability assay with Caco-2 cells
studyConditions: human, Caco-2, pH 7.4
Recorded Papp A→B at 2 h, 10 μM values for a group of compounds are listed next.

[
  {
    "compound": "C[n+]1c(N)c(N)cc2ccccc21",
    "Papp A→B at 2 h, 10 μM [nm/s]": 52.7
  },
  {
    "compound": "C[n+]1cccc2c(N)cccc21 [1j, 5-amino-1-methylquinolin-1-ium iodide]",
    "Papp A→B at 2 h, 10 μM [nm/s]": 342
  },
  {
    "compound": "C[n+]1cccc2ccc(N)cc21",
    "Papp A→B at 2 h, 10 μM [nm/s]": 260
  }
]

====

assayText: Parallel artificial membrane permeability assay (PAMPA)
Type: in vitro ADME
studyConditions: 400 μM in PBS, 4 h, room temperature, read-out: Flux
Class satisfied: Papp at 4 h, 400 μM at least 1 ×10⁻⁶ cm/s. Class not satisfied: Papp at 4 h, 400 μM below 1 ×10⁻⁶ cm/s.

[
  {
    "compound": "C[n+]1cccc2ccc(N)cc21",
    "classification": "satisfied"
  },
  {
    "compound": "C[n+]1c(N)c(N)cc2ccccc21",
    "classification": "satisfied"
  },
  {
    "compound": "Cc1cccc2ccc[n+](C)c12",
    "classification": "not satisfied"
  },
  {
    "compound": "C[n+]1cc(N)cc2cc(F)ccc21",
    "classification": "satisfied"
  },
  {
    "compound": "Cc1cc(C)[n+](C)c2c(C)cccc12",
    "classification": "not satisfied"
  },
  {
    "compound": "C[n+]1cccc2c(N)cccc21 [1j, 5-amino-1-methylquinolin-1-ium iodide]",
    "classification": "satisfied"
  }
]

====

measurementTarget: recombinant human DNMT1 enzyme (Homo sapiens)
Sequence (P26358 whole entry): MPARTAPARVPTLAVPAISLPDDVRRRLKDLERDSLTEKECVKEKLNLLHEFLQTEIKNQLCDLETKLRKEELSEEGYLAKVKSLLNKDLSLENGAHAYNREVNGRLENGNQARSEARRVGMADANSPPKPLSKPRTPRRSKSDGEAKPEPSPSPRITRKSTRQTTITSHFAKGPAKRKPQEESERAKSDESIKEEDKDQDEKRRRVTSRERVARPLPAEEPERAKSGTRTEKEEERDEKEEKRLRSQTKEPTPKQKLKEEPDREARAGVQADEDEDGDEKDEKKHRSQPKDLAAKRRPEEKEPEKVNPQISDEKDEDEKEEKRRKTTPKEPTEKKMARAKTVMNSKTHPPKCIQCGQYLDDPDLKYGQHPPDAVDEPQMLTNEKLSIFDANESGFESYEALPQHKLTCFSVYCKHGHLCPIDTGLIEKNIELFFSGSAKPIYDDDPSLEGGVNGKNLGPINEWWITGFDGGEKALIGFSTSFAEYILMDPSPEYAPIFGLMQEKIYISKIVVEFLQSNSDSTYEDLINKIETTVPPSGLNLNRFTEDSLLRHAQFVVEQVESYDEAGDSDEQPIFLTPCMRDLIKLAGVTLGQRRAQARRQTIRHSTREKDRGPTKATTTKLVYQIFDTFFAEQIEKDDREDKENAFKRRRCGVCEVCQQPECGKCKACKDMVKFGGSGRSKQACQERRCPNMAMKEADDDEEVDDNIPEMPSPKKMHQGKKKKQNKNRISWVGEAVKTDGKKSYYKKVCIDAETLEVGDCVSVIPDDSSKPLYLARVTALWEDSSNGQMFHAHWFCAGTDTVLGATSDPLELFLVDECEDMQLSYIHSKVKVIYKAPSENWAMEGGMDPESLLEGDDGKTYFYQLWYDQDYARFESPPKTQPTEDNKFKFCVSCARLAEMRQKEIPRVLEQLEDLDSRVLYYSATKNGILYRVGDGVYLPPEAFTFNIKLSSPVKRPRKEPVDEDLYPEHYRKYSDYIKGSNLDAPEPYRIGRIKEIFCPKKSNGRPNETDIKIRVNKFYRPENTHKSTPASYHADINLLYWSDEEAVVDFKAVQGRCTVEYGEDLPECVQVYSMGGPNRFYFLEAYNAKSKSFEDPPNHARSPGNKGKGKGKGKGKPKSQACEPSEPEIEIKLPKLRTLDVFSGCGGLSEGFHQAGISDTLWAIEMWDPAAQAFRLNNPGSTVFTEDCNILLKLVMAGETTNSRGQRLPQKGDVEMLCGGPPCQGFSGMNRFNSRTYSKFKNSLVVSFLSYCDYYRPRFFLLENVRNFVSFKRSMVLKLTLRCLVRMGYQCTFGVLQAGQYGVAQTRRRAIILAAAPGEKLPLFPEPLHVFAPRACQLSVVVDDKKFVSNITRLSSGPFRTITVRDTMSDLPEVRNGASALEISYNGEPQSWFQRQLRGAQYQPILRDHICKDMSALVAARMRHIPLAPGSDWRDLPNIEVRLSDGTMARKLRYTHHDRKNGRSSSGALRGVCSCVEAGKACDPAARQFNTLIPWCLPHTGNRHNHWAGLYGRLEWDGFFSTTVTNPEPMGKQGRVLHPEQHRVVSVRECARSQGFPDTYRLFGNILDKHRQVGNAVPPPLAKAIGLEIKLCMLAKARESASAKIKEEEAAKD
assayText: DNMT1 activity assay (radiometric)
Format: biochemical
studyConditions: read-out: IC50, DNA (cytosine-5)-methyltransferase 1; NI: no inhibition
pIC50: −log10 of the molar value.

[
  {
    "structureSmiles": "Cc1cccc2ccc[n+](C)c12",
    "pIC50": "< 3.70"
  }
]

====

Recorded Papp B→A at 2 h, 10 μM values for a group of compounds are listed next.
assayText: Bi-directional permeability assay with Caco-2 cells
studyConditions: human, Caco-2, pH 7.4
measuredProperty: Papp B→A at 2 h, 10 μM (×10⁻⁶ cm/s)

[
  {
    "compound": "C[n+]1cccc2ccc(N)cc21 [1o]",
    "val": 39.6
  },
  {
    "compound": "C[n+]1cccc2c(N)cccc21 [1j, 5-amino-1-methylquinolin-1-ium iodide]",
    "val": 45.2
  },
  {
    "compound": "C[n+]1c(N)c(N)cc2ccccc21 [2m]",
    "val": 21.2
  },
  {
    "compound": "Cc1cccc2ccc[n+](C)c12 [1q]",
    "val": 1.78
  }
]

====

measurementTarget: human NNMT (mt-hNNMT) (Homo sapiens, UniProt P40261, E101A/E103A/K100A)
Sequence (P40261 1-261 K100A/E101A/E103A limits assumed): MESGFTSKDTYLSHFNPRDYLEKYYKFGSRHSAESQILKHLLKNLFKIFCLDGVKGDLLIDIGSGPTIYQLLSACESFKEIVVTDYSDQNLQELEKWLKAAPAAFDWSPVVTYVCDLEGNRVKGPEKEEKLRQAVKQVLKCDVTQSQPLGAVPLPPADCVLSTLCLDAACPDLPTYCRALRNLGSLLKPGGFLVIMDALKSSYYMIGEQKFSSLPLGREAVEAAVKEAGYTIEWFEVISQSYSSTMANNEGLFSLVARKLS
assayText: NNMT activity assay (HPLC-UV detection of MNA), NNMT IC50 curves
studyConditions: NNMT Inhibition IC50, mean ± SD of duplicate or triplicate measurements; NI = no observable inhibition
pIC50: −log10 of the molar value.
Recorded pIC50 values for a group of molecules are listed next.

[
  {
    "molecule": "COCC[n+]1cccc2ccccc21",
    "cmp": "<",
    "pIC50": 3.00
  },
  {
    "molecule": "C[n+]1cc(Nc2ccccc2)cc2ccccc21",
    "cmp": "<",
    "pIC50": 3.00
  },
  {
    "molecule": "CC[n+]1cccc2cccc(C)c21",
    "cmp": "=",
    "pIC50": 5.51
  },
  {
    "molecule": "C[n+]1ccc(N)c2ccccc21",
    "cmp": "=",
    "pIC50": 4.94
  },
  {
    "molecule": "C[n+]1cccc2ccc(N)cc21",
    "cmp": "=",
    "pIC50": 5.59
  },
  {
    "molecule": "C[n+]1cccc2ccc(O)cc21",
    "cmp": "=",
    "pIC50": 3.15
  },
  {
    "molecule": "C[n+]1cc(N)cc2ccccc21",
    "cmp": "=",
    "pIC50": 5.54
  },
  {
    "molecule": "C[n+]1c(N)c(N)cc2ccccc21",
    "cmp": "=",
    "pIC50": 5.55
  },
  {
    "molecule": "CCC[n+]1cccc2cc(C)ccc21",
    "cmp": "<",
    "pIC50": 3.00
  },
  {
    "molecule": "COc1ccc2c(ccc[n+]2C)c1",
    "cmp": "=",
    "pIC50": 3.92
  },
  {
    "molecule": "Cc1cccc2ccc[n+](C)c12",
    "cmp": "=",
    "pIC50": 5.74
  },
  {
    "molecule": "Cc1cc[n+](CCO)c2ccccc12",
    "cmp": "=",
    "pIC50": 4.47
  },
  {
    "molecule": "CNc1cc2ccccc2[n+](C)c1.[I-]",
    "cmp": "=",
    "pIC50": 5.40
  },
  {
    "molecule": "CC(C(=O)c1ccc(Br)cc1)[n+]1cccc2ccccc21 (stereo not drawn)",
    "cmp": "<",
    "pIC50": 3.00
  },
  {
    "molecule": "CC(=O)C[n+]1cccc2cccc(O)c21",
    "cmp": "=",
    "pIC50": 4.39
  },
  {
    "molecule": "C[n+]1cccc2cc(F)ccc21",
    "cmp": "=",
    "pIC50": 5.24
  },
  {
    "molecule": "Cc1ccc2ccccc2[n+]1C",
    "cmp": "=",
    "pIC50": 4.68
  },
  {
    "molecule": "C[n+]1cccc2cc(N)ccc21.[I-] [1m, 6-amino-1-methylquinolin-1-ium Iodide]",
    "cmp": "=",
    "pIC50": 4.46
  },
  {
    "molecule": "CC[n+]1ccc(C)c2ccccc21",
    "cmp": "=",
    "pIC50": 5.06
  },
  {
    "molecule": "C[n+]1cccc2cccc(O)c21",
    "cmp": "=",
    "pIC50": 4.02
  },
  {
    "molecule": "C[n+]1cccc2ccccc21",
    "cmp": "=",
    "pIC50": 4.92
  },
  {
    "molecule": "CC(=O)C[n+]1cccc2cc(O)ccc21",
    "cmp": "<",
    "pIC50": 3.00
  },
  {
    "molecule": "OC(CBr)C[n+]1cc(Br)cc2ccccc21 (stereo not drawn)",
    "cmp": "<",
    "pIC50": 3.00
  },
  {
    "molecule": "C[n+]1c(N)ccc2ccccc21.[I-] [1c, 2-amino-1-methylquinolin-1-ium Iodide]",
    "cmp": "=",
    "pIC50": 5.20
  },
  {
    "molecule": "O=C1C2CC=C(Cl)CC2C(=O)N1CCC[n+]1cccc2ccccc21 (stereo not drawn)",
    "cmp": "<",
    "pIC50": 3.00
  },
  {
    "molecule": "Cc1cc[n+](C)c2ccccc12",
    "cmp": "=",
    "pIC50": 5.12
  },
  {
    "molecule": "C[n+]1cc(C#N)cc2ccccc21",
    "cmp": "=",
    "pIC50": 4.62
  }
]
